# Test system: MOLT-4
# measurementNotes: Growth inhibition of human MOLT4 cells assessed as cell growth at 10^-8 M incubated for 48 hrs by sulforhodamine B assay relative to control
# Type: functional
# testParameters: MOLT-4, 48 h, read-out: Activity
measuredParameter: growth at 0.01 µM

>>> observedresult("C#C[C@@]1(O)[C@@H](CO)O[C@@H](n2cc(Cl)c3c(N)ncnc32)[C@@H]1O")
"81 to 83%"
>>> observedresult("C#C[C@@]1(O)[C@@H](CO)O[C@@H](n2cc(Br)c3c(N)ncnc32)[C@@H]1O")
"86 to 95%"
>>> observedresult("C#C[C@@]1(O)[C@@H](CO)O[C@@H](n2cc(I)c3c(N)ncnc32)[C@@H]1O")
"75 to 83%"

---

# Test system: CCRF-CEM
# measurementNotes: Antiproliferative activity against human CEM cells after 72 hrs by Coulter counter method
# Assay type: functional, cell-based
pIC50: −log10 of the molar value.
measuredParameter: pIC50

>>> observedresult("C#C[C@@]1(O)[C@@H](CO)O[C@@H](n2cc(-c3ccco3)c3c(N)ncnc32)[C@@H]1O")
4.77
>>> observedresult("C#C[C@@]1(O)[C@@H](CO)O[C@@H](n2cnc3c(-c4ccc(Cl)cc4)ncnc32)[C@@H]1O")
3.91
>>> observedresult("C#C[C@@]1(O)[C@@H](CO)O[C@@H](n2cc(I)c3c(N)ncnc32)[C@@H]1O")
6.92
>>> observedresult("C#C[C@@]1(O)[C@@H](CO)O[C@@H](n2cnc3c(-c4ccc(F)cc4)ncnc32)[C@@H]1O")
3.65

---

Measured growth at 0.1 µM by item
# Tested on: SK-OV-3
# measurementNotes: Growth inhibition of human SKOV3 cells assessed as cell growth at 10^-7 M incubated for 48 hrs by sulforhodamine B assay relative to control
# Assay type: functional
# testParameters: SK-OV-3, 48 h, read-out: Activity
measuredParameter: growth at 0.1 µM

>>> observedresult("C#C[C@@]1(O)[C@@H](CO)O[C@@H](n2cc(Cl)c3c(N)ncnc32)[C@@H]1O")
"56 to 72%"
>>> observedresult("C#C[C@@]1(O)[C@@H](CO)O[C@@H](n2cc(I)c3c(N)ncnc32)[C@@H]1O")
"26 to 40%"
>>> observedresult("C#C[C@@]1(O)[C@@H](CO)O[C@@H](n2cc(Br)c3c(N)ncnc32)[C@@H]1O")
"28 to 62%"

---

Measured growth at 0.01 µM by item
# System: NCI-H322M
# measurementNotes: Growth inhibition of human NCI-H322M cells assessed as cell growth at 10^-8 M incubated for 48 hrs by sulforhodamine B assay relative to control
# Assay type: functional
# testParameters: read-out: Activity
measuredParameter: growth at 0.01 µM

>>> observedresult("C#C[C@@]1(O)[C@@H](CO)O[C@@H](n2cc(Br)c3c(N)ncnc32)[C@@H]1O")
"91 to 95%"
>>> observedresult("C#C[C@@]1(O)[C@@H](CO)O[C@@H](n2cc(Cl)c3c(N)ncnc32)[C@@H]1O")
"93 to 100%"
>>> observedresult("C#C[C@@]1(O)[C@@H](CO)O[C@@H](n2cc(I)c3c(N)ncnc32)[C@@H]1O")
"75 to 86%"

---

# Tested on: EKVX
# measurementNotes: Growth inhibition of human EKVX cells assessed as cell growth at 10^-7 M incubated for 48 hrs by sulforhodamine B assay relative to control
# Assay type: functional
# testParameters: read-out: Activity
measuredParameter: growth at 0.1 µM

>>> observedresult("C#C[C@@]1(O)[C@@H](CO)O[C@@H](n2cc(Cl)c3c(N)ncnc32)[C@@H]1O")
"78 to 79%"
>>> observedresult("C#C[C@@]1(O)[C@@H](CO)O[C@@H](n2cc(Br)c3c(N)ncnc32)[C@@H]1O")
"60 to 74%"
>>> observedresult("C#C[C@@]1(O)[C@@H](CO)O[C@@H](n2cc(I)c3c(N)ncnc32)[C@@H]1O")
"69 to 75%"
